biological target: T1, HLA-DRB1*1501 (human); experiment: inhibition of 125I probe peptide binding to purified HLA-DR, gel filtration
T1 construct: Purified HLA molecule; also called DR2w2β1
OBSERVABLE: IC50 (µM)
A number alone suffices; assume µM.

(Q) Using the record for DEAYVMAGVGSPYVS (Synthetic peptide) [Her2/neu.769] , report its IC50.
(A) 3.14

(Q) Using the record for KVPIKWMALESILRR (Synthetic peptide) [Her2/neu.883] , report its IC50.
(A) 0.0034
